The values you see were collected from patent US7364741B1.

# Tested on: HLA-A11.2
# testDetails: Immunochemical peptide-MHC binding assay, purified HLA-A11.2, radiolabeled probe […]
# Design: species or system human
# experimentalParameters: IC50 of standard divided by IC50 of tested peptide, cysteines synthesized as alanine
Quick rule: binding ratio to standard of at least 0.006 means true, below that means false.

Would you say CCKCDSTLR [residues 58-66 of HPV16 protein E7] shows binding ratio to standard at minimum 0.006?
true

Input VYCKQQLLR [residues 38-46 of HPV16 protein E6]
false

Follow-up entry: VCDKCLKFY [residues 69-77 of HPV16 protein E6]
false

Please answer likewise for CMSCCRSSR [residues 143-151 of HPV16 protein E6]
true

# repeat for CVYCKQQLL [HPV16 peptide 8, residues 37-45 of HPV16 protein E6]
true

Next up: QQLLRREVY [residues 42-50 of HPV16 protein E6]
true

Then what about the sequence AVCDKCLKF [residues 68-76 of HPV16 protein E6] ?
false

Can you check ISEYRHYCY [residues 80-88 of HPV16 protein E6] next?
true

---

# systemTested: HLA-A3.2 (Homo sapiens, UniProt P04439)
# Construct: endogenous in cells; host or cells: EBV transformed cell line GM3107 (protein purified from NP40 lysate)
# Sequence (P04439 25-365): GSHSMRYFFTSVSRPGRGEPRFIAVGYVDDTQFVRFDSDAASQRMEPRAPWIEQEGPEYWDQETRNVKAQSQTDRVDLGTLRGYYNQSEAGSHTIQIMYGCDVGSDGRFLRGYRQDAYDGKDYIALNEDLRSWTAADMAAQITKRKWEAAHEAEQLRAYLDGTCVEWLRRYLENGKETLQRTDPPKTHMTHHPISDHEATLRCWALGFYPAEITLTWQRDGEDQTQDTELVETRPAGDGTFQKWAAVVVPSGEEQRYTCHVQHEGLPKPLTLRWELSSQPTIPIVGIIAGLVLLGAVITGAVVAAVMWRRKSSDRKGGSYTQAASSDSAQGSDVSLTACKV
# Sequence (P61769 21-119, further chain): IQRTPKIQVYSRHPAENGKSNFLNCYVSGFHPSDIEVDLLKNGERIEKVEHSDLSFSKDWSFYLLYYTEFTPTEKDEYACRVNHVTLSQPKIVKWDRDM
# Type: binding
# experimentalParameters: HLA-A3.2; IC50 of standard divided by IC50 of tested peptide; cysteines synthesized as alanine
I'd be grateful if you could share measured binding ratio to standard for these entries.

Illustrative cases are given below, each with its answer.
monomerSequence: SCCRSSRTR [residues 145-153 of HPV16 protein E6]
endpointValue: 0.0200
--
monomerSequence: AVCDKCLKF [residues 68-76 of HPV16 protein E6]
endpointValue: 0.0056

Dear colleague, I am looking for the recorded binding ratio to standard of the following sequence: HLDKKQRFH [residues 125-133 of HPV16 protein E6]
0.4400

---

Kindly supply the reported binding ratio to standard values for the records listed here.
# Tested on: HLA-A24
# testDetails: Immunochemical peptide-MHC binding assay, purified HLA-A24, radiolabeled probe AYIDNYNKF
# Parameters: species or system human
# experimentalParameters: IC50 of standard divided by IC50 of tested peptide, cysteines synthesized as alanine
Answers are plain numbers.

Past entries and their recorded results:
monomerSequence: CYSLYGTTL [residues 87-95 of HPV16 protein E6]
property: binding ratio to standard
endpointValue: 0.1200
//
monomerSequence: EYRHYCYSL [residues 82-90 of HPV16 protein E6]
property: binding ratio to standard
endpointValue: 0.0460
//
monomerSequence: MHQKRTAMF [residues 1-9 of HPV16 protein E6]
property: binding ratio to standard
endpointValue: 0.0049
//
monomerSequence: KCLKFYSKI [residues 72-80 of HPV16 protein E6]
property: binding ratio to standard
endpointValue: 0.1100
//
monomerSequence: VYDFAFRDL [residues 49-57 of HPV16 protein E6]
property: binding ratio to standard
endpointValue: 0.0610
//
monomerSequence: LLRREVYDF [residues 44-52 of HPV16 protein E6]
property: binding ratio to standard
endpointValue: 0.0023
//
monomerSequence: RAHYNIVTF [residues 49-57 of HPV16 protein E7]
property: binding ratio to standard
endpointValue: 0.0670

Let's switch to this sequence now.
Look up binding ratio to standard for this sequence: HYCYSLYGT [residues 85-93 of HPV16 protein E6]
0.0037

---

# systemTested: HLA-A2.1 (Homo sapiens, UniProt P04439, D140Y/D185E/D98H/E176V/E277Q/G131W/G231S/I119V/I121R/I166T/I218V/L300P/L318F/N151K/N90K/P208A/P217A/Q86G/Q94H/R138H/R169H/T345S)
# Construct: endogenous in cells; host or cells: 174CEM.T2
# Format: cell-based
# experimentalParameters: HPV16 peptides; 200 μg/ml peptide, 16 hours, 174CEM.T2 cells; background set on 0; binding positive when ≧0.5
property: FI (Fluorescence Index)

Recorded FI (Fluorescence Index), per entry:
monomerSequence: GTLGIVCPI [HPV16 peptide 17, residues 85-93 of HPV16 protein E7]
FI (Fluorescence Index): 2.3

monomerSequence: ELQTTIHDI [HPV16 peptide 4, residues 25-33 of HPV16 protein E6]
FI (Fluorescence Index): 0.6

monomerSequence: KISEYRHYC [HPV16 peptide 9, residues 79-87 of HPV16 protein E6]
FI (Fluorescence Index): 2.2

Please report the recorded FI (Fluorescence Index) for QLCTELQTT [HPV16 peptide 2, residues 21-29 of HPV16 protein E6] .
2.2
